System: proteins in Jurkat cell lysate (total cellular proteome)
Method notes: Competition of α-pY antibody binding with Jurkat cell lysate on peptide microarrays
Cond: from EC50 and Kd α-pY by Cheng-Prusoff equation (Eq. 4); ± standard deviation
Non-standard residues stand in square brackets, D forms with d. Residues, ends and D or L forms follow the SMILES beside them. pY = N[C@@H](Cc1ccc(OP(=O)(O)O)cc1)C(=O)O
Measured metric: Kd

- CC(C)C[C@H](NC(=O)[C@H](CCC(=O)O)NC(=O)[C@H](CCC(N)=O)NC(=O)[C@H](CC(C)C)NC(=O)[C@H](CC(N)=O)NC(=O)[C@H](CCC(=O)O)NC(=O)[C@H](Cc1ccc(OP(=O)(O)O)cc1)NC(=O)[C@H](CC(=O)O)NC(=O)[C@@H]1CCCN1C(=O)[C@H](C)NC(=O)CNC(=O)[C@H](CCC(=O)O)NC(=O)[C@H](CCC(=O)O)NC(=O)[C@H](CCC(=O)O)NC(=O)[C@@H](NC(=O)[C@H](CCC(=O)O)NC(=O)[C@@H](N)CS)C(C)C)C(=O)N[C@@H](CC(N)=O)C(N)=O [LATpY226] (H-CEVEEEGAPD[pY]ENLQELN-NH2): 15 µM
